targetOfAssay: H4-stimulated PARP1 (human Parp-1) (Homo sapiens, UniProt P09874)
Sequence (P09874 whole entry): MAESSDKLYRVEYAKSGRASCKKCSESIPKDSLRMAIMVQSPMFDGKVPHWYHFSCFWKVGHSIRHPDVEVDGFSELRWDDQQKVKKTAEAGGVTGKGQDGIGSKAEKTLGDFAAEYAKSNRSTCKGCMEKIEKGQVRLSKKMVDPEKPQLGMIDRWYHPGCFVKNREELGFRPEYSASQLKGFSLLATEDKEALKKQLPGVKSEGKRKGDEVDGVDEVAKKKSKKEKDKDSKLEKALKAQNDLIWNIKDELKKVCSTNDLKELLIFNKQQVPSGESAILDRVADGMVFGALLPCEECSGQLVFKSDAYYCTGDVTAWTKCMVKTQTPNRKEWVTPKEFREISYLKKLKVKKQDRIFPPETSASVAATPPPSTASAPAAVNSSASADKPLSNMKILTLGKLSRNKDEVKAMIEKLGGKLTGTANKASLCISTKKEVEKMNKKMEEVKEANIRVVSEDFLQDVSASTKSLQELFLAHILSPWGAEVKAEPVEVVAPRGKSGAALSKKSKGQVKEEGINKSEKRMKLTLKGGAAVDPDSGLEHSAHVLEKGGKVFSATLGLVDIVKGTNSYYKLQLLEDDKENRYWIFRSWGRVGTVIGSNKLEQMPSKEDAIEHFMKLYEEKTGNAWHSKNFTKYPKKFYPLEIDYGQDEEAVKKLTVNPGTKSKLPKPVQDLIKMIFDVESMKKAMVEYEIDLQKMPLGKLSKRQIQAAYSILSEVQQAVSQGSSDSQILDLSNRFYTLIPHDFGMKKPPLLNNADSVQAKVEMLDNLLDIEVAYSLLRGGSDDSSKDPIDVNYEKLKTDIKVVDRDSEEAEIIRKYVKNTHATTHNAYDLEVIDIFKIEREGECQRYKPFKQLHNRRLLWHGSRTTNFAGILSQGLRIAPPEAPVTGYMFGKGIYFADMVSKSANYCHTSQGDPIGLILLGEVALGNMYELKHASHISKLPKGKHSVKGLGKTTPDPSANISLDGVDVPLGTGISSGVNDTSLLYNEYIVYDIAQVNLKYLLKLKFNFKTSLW
method: Inhibition of H4-stimulated PARP1 activation
Format: biochemical
conditionSummary: read-out: H4/PARP Inhibition IC50; histone H4-coated plates, human Parp-1, NAD+
Hi there, I'd appreciate the recorded IC50 for every entry that follows.
Provide only the numeric value, understood in nM.

**Query** Sample C[N+]1(CC(=O)OC2CCCCCCCCCCC2)CCCC1.[I-] [Compound 2] — what was its IC50?
**Result** 52.4

**Query** Sample CC(C)(C)OC(=O)N1CC[N+](C)(CC(=O)OC2CCCCCCCCCCC2)CC1.[I-] [Compound 8] — what was its IC50?
**Result** 55.8

**Query** Sample CN(C(=O)CO[N+]1(C)CCCCC1)C1CCCCCCCCCCC1 [Compound 18] — what was its IC50?
**Result** 191

**Query** Sample C[N+]1(CC(=O)OC2CCCCCCCCCCC2)CCSCC1.[I-] [Compound 6] — what was its IC50?
**Result** 156
